# test_target: S1P3 (Homo sapiens, UniProt Q99500)
# Sequence (Q99500 whole entry, species assumed): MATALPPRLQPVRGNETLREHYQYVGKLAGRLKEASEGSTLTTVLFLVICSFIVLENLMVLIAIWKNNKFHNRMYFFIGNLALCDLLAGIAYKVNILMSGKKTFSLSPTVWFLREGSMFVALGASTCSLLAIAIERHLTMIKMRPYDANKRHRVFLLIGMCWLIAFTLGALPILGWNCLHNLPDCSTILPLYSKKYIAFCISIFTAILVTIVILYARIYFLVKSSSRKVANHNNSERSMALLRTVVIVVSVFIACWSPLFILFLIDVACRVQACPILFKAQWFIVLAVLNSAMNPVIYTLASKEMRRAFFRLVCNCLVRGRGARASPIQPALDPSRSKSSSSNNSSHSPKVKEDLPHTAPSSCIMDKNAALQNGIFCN
# test_protocol: 35S-GTPγS binding, S1P3 membranes
# measurement_context: membranes from CHO cells expressing S1P3; 60 min 30° C.
# label = y if EC50 < 3 µM else n

Worked set:
INSERT INTO assay_data (molecule, test_target, category) VALUES
  ('COCc1cc(-c2nc(-c3ccc(C(=O)O)c(F)c3)no2)ccc1-c1ccccc1OC', 'S1P3 (Homo sapiens, UniProt Q99500)', 'n'),
  ('CC1CCCCN1c1ccc(-c2nc(-c3ccc(C(=O)O)c(F)c3)no2)cc1NS(C)(=O)=O (centres unmarked)', 'S1P3 (Homo sapiens, UniProt Q99500)', 'n'),
  ('Cc1cc(-c2nc(-c3ccc(C(=O)O)cc3F)no2)ccc1-c1cscc1C', 'S1P3 (Homo sapiens, UniProt Q99500)', 'n'),
  ('COCc1cc(-c2nc(-c3ccc(OCC(=O)O)c(F)c3)no2)ccc1-c1ccccc1C', 'S1P3 (Homo sapiens, UniProt Q99500)', 'y'),
  ('COc1cc(-c2nc(-c3ccc(C(=O)O)c(F)c3)no2)ccc1-c1ccccc1C', 'S1P3 (Homo sapiens, UniProt Q99500)', 'n');

Decide: EC50 of COCc1cc(-c2nc(-c3ccc(C(=O)O)c(F)c3)no2)ccc1N1CCCCC1C (centres unmarked) strictly below 3 µM?
y

Decide: EC50 of COCc1cc(-c2nc(-c3cccc(CO)c3)no2)ccc1-c1ccccc1C strictly below 3 µM?
y

---

# test_target: S1P1 (Homo sapiens)
# Sequence (P21453 whole entry, species assumed): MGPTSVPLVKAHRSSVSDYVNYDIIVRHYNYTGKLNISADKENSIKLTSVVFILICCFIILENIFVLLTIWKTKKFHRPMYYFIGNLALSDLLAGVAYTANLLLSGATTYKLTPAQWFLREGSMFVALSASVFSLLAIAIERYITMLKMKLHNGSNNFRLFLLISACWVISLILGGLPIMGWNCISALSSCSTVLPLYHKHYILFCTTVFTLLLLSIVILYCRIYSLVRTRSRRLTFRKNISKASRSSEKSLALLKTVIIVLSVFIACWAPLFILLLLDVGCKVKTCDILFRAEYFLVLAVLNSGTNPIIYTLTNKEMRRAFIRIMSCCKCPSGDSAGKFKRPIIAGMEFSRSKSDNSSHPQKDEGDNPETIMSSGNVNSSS
pKi: −log10 of the molar value. Where a name gives a salt, the structure may show the parent alone.
Could you label it Yes if measured pKi is 7 or higher, and No otherwise?

Worked set:
INSERT INTO results (compound, test_target, category) VALUES
  ('COCc1cc(-c2nc(-c3cccc(CN(C)CC(=O)O)c3)no2)ccc1-c1ccccc1C [Example 141, Hydrochloride salt]', 'S1P1 (Homo sapiens)', 'Yes'),
  ('COCc1cc(-c2nc(-c3ccc(C(N)=O)cc3)no2)ccc1-c1ccccc1C', 'S1P1 (Homo sapiens)', 'Yes'),
  ('Cc1ccccc1-c1ccc(-c2nc(-c3ccc(C(=O)O)c(F)c3)no2)cc1CN(C)C [Example 62, Hydrochloride salt]', 'S1P1 (Homo sapiens)', 'Yes'),
  ('COCc1cc(-c2nc(-c3cccc(C(=O)NCCC#N)c3)no2)ccc1-c1ccccc1C', 'S1P1 (Homo sapiens)', 'Yes'),
  ('COCc1cc(-c2nc(-c3cc(F)c(C(=O)O)cc3F)no2)ccc1-c1ccccc1C', 'S1P1 (Homo sapiens)', 'Yes');

I'd appreciate it if you could say whether CC(C)Oc1ncc(-c2nc(-c3ccc(C(=O)O)c(F)c3)no2)cc1Cl has pKi at least equal to 7.
No

I'd appreciate it if you could say whether Cc1ccccc1-c1ccc(-c2nc(-c3ccc(C(N)=O)c(F)c3)no2)cc1C has pKi at least equal to 7.
Yes

I'd appreciate it if you could say whether COCCN(C)Cc1cccc(-c2noc(-c3ccc(-c4ccccc4C)c(COC)c3)n2)c1 [Example 185, Hydrochloride salt] has pKi at least equal to 7.
Yes

I'd appreciate it if you could say whether O=C(O)c1ccc(-c2noc(-c3ccc(-c4ccccc4Cl)cc3)n2)cc1F has pKi at least equal to 7.
No

I'd appreciate it if you could say whether COCc1cc(-c2nc(-c3cccc(C(=O)O)c3)no2)ccc1-c1ccccc1C has pKi at least equal to 7.
Yes

I'd appreciate it if you could say whether Cc1cccc(C)c1-c1ccc(-c2nc(-c3ccc(C(=O)O)c(F)c3)no2)cc1 has pKi at least equal to 7.
No

I'd appreciate it if you could say whether COCc1cc(-c2nc(-c3ccc(C(=O)NCCc4nnn[nH]4)c(F)c3)no2)ccc1-c1ccccc1C has pKi at least equal to 7.
Yes

I'd appreciate it if you could say whether Cc1ccccc1-c1ccc(-c2nc(-c3ccc(C(=O)O)c(F)c3)no2)cc1CN1CCOCC1 [Example 75, Trifluoroacetic acid salt] has pKi at least equal to 7.
No

I'd appreciate it if you could say whether COCc1cc(-c2nc(-c3ccc(C(=O)O)c(F)c3)no2)ccc1-c1cc(F)ccc1C has pKi at least equal to 7.
Yes

I'd appreciate it if you could say whether COCc1cc(-c2nc(-c3cccc(CCO)c3)no2)ccc1-c1ccccc1C has pKi at least equal to 7.
Yes

---

# test_target: S1P1 (Homo sapiens)
# test_protocol: 35S-GTPγS binding, S1P1 membranes
# measurement_context: membranes from CHO cells expressing S1P1; 60 min 30° C.
Structures can show the parent of a compound that is named as a salt.
Here the recorded EC50 is given for each entry.
# number only, unit nM dropped from output

Known EC50 results, listed for orientation:
INSERT INTO results (molecule, test_target, measure_name, readout_units, value_observed) VALUES
  ('COCc1cc(-c2nc(-c3ccc(F)c(CN(C)CC(=O)O)c3)no2)ccc1-c1ccccc1C [Example 146, Hydrochloride salt]', 'S1P1 (Homo sapiens)', 'EC50', 'nM', 2.5),
  ('Cc1ccccc1-c1ccc(-c2nc(-c3ccc(C(N)=O)c(F)c3)no2)cc1C [Example 171]', 'S1P1 (Homo sapiens)', 'EC50', 'nM', 19),
  ('CC1CCCCN1c1ccc(-c2nc(-c3ccc(C(=O)O)c(F)c3)no2)cc1[N+](=O)[O-] (centres unmarked) [Example 15]', 'S1P1 (Homo sapiens)', 'EC50', 'nM', 1220),
  ('COCc1cc(-c2nc(-c3ccc(C(=O)NCCNC(C)=O)c(F)c3)no2)ccc1-c1ccccc1C [Example 174]', 'S1P1 (Homo sapiens)', 'EC50', 'nM', 17),
  ('CCCS(=O)(=O)Nc1cc(-c2nc(-c3ccc(C(=O)O)c(F)c3)no2)ccc1N1CCCCC1C (centres unmarked) [Example 74]', 'S1P1 (Homo sapiens)', 'EC50', 'nM', 408),
  ('COCc1cc(-c2nc(-c3cc(Cl)c(C(=O)O)cc3F)no2)ccc1-c1ccccc1C [Example 109]', 'S1P1 (Homo sapiens)', 'EC50', 'nM', 90),
  ('CCc1nnn(CCNC(=O)c2ccc(-c3noc(-c4ccc(-c5ccccc5C)c(COC)c4)n3)cc2F)n1 [Example 180]', 'S1P1 (Homo sapiens)', 'EC50', 'nM', 26),
  ('COCc1cc(-c2nc(-c3ccc(F)c(CN(C)CC(=O)O)c3)no2)ccc1N1CCCCC1C (centres unmarked) [Example 152, Dihydrochloride salt]', 'S1P1 (Homo sapiens)', 'EC50', 'nM', 0.6),
  ('COCc1cc(-c2nc(-c3cc(C(=O)OC)ccc3OC)no2)ccc1-c1ccccc1C [Example 106]', 'S1P1 (Homo sapiens)', 'EC50', 'nM', 50),
  ('COc1cc(C(=O)O)ccc1-c1noc(-c2ccc(-c3ccccc3C)c(C)c2)n1 [Example 45]', 'S1P1 (Homo sapiens)', 'EC50', 'nM', 4480);

Entry Cc1cc(-c2nc(-c3ccc(C(=O)O)c(F)c3)no2)ccc1-c1cscc1C [Example 9] needs its EC50 filled in; supply it.
136

Entry COCc1cc(-c2nc(-c3ccc(C(=O)O)c(F)c3)no2)ccc1-c1cc(F)ccc1F [Example 91] needs its EC50 filled in; supply it.
410

Entry COCc1cc(-c2nc(-c3cccc(OCCCC(=O)O)c3)no2)ccc1N1CCCCC1C (centres unmarked) [Example 164] needs its EC50 filled in; supply it.
1.5

---

Here the recorded EC50 is given for each entry.
# test_target: S1P3 (Homo sapiens, UniProt Q99500)
# test_protocol: 35S-GTPγS binding, S1P3 membranes
# measurement_context: membranes from CHO cells expressing S1P3; 60 min 30° C.
Counter-ions that a name gives are not always drawn.

INSERT INTO results (compound, value_observed) VALUES
  ('COCc1cc(-c2nc(-c3ccc(C(=O)O)c(F)c3)no2)ccc1-c1cc(F)ccc1C', '2800 nM');

Find the measured EC50 of COCc1cc(-c2nc(-c3ccc(C(=O)O)c(Cl)c3)no2)ccc1-c1ccccc1C with S1P3 (Homo sapiens, UniProt Q99500) as test system.
2630 nM

Find the measured EC50 of Cc1ccccc1-c1ccc(-c2nc(-c3ccc(C(=O)O)c(F)c3)no2)cc1C with S1P3 (Homo sapiens, UniProt Q99500) as test system.
> 30000 nM

Find the measured EC50 of COCc1cc(-c2nc(-c3cccc(CN(C)CC(=O)O)c3)no2)ccc1OC(C)C [Example 148, Hydrochloride salt] with S1P3 (Homo sapiens, UniProt Q99500) as test system.
2350 nM

Find the measured EC50 of COCc1cc(-c2nc(-c3ccc(C(=O)NC(C)CC(=O)O)c(F)c3)no2)ccc1-c1ccccc1C (stereo not shown) with S1P3 (Homo sapiens, UniProt Q99500) as test system.
1210 nM

Find the measured EC50 of Cc1ccccc1-c1ccc(-c2nc(-c3ccc(C(=O)O)c(F)c3)no2)cc1C(F)(F)F with S1P3 (Homo sapiens, UniProt Q99500) as test system.
> 20000 nM

Find the measured EC50 of O=C(O)c1ccc(-c2noc(-c3ccc(-c4ccccc4Cl)cc3)n2)cc1F with S1P3 (Homo sapiens, UniProt Q99500) as test system.
> 30000 nM

Find the measured EC50 of COCc1cc(-c2nc(-c3cccc(CN(C)CCC(=O)O)c3)no2)ccc1-c1ccccc1C with S1P3 (Homo sapiens, UniProt Q99500) as test system.
95 nM

Find the measured EC50 of Cc1ccccc1-c1ccc(-c2nc(-c3ccc(OCC(=O)O)c(F)c3)no2)cc1C with S1P3 (Homo sapiens, UniProt Q99500) as test system.
17000 nM

Find the measured EC50 of COCc1cc(-c2nc(-c3cccc(S(N)(=O)=O)c3)no2)ccc1-c1ccccc1C with S1P3 (Homo sapiens, UniProt Q99500) as test system.
214 nM

Find the measured EC50 of Cc1ccccc1-c1ccc(-c2nc(-c3ccc(C(=O)O)cc3F)no2)cc1C with S1P3 (Homo sapiens, UniProt Q99500) as test system.
> 30000 nM

Find the measured EC50 of CC1CCCCN1c1ccc(-c2nc(-c3ccc(C(=O)O)c(Cl)c3)no2)cc1NS(C)(=O)=O (stereo not shown) with S1P3 (Homo sapiens, UniProt Q99500) as test system.
1410 nM

Find the measured EC50 of COCc1cc(-c2nc(-c3ccc(C(=O)NCC(=O)O)c(F)c3)no2)ccc1-c1ccccc1C with S1P3 (Homo sapiens, UniProt Q99500) as test system.
1000 nM

Find the measured EC50 of CC1CCCCN1c1ccc(-c2nc(-c3ccc(C(=O)O)c(F)c3)no2)cc1[N+](=O)[O-] (stereo not shown) with S1P3 (Homo sapiens, UniProt Q99500) as test system.
> 30000 nM

Find the measured EC50 of COCc1cc(-c2nc(-c3ccc(C(=O)O)c(F)c3)no2)ccc1-c1ccccc1F with S1P3 (Homo sapiens, UniProt Q99500) as test system.
2780 nM

Find the measured EC50 of COCc1cc(-c2nc(-c3ccc(C(=O)NCCNC(C)=O)c(F)c3)no2)ccc1-c1ccccc1C with S1P3 (Homo sapiens, UniProt Q99500) as test system.
1420 nM
